- Target entity: HLA-B*40:01
- Experiment summary: IEDB peptide-MHC binding, purified MHC/competitive/radioactivity; filed as Kd, often an IC50 or EC50 that approximates it; bounds were set here for any values at or beyond the usual limits of such assays
- Applied conditions: source organism: Dengue virus 4 Philippines/H241/1956
Attribute measured: pKd
Friendly reminder that pKd comes from taking -log10 of the concentration in mol/L.

Solved entries:
- Query sequence: "MEFIDGISL"
  Attribute measured: "pKd"
  Value reported: 9.74
- Query sequence: "NELPESLETL"
  Attribute measured: "pKd"
  Value reported: 6.61

Note: attention shifts to another entry.
query: What pKd value was documented for this sequence, `AEYTNSVTNI` ?
result: 6.80
